# Target Or Test System: ESR1 (estrogen receptor 1) (Homo sapiens, UniProt P03372)
# Construct: expressed in transfected cells; host or cells: HepG2
# Sequence (P03372 whole entry): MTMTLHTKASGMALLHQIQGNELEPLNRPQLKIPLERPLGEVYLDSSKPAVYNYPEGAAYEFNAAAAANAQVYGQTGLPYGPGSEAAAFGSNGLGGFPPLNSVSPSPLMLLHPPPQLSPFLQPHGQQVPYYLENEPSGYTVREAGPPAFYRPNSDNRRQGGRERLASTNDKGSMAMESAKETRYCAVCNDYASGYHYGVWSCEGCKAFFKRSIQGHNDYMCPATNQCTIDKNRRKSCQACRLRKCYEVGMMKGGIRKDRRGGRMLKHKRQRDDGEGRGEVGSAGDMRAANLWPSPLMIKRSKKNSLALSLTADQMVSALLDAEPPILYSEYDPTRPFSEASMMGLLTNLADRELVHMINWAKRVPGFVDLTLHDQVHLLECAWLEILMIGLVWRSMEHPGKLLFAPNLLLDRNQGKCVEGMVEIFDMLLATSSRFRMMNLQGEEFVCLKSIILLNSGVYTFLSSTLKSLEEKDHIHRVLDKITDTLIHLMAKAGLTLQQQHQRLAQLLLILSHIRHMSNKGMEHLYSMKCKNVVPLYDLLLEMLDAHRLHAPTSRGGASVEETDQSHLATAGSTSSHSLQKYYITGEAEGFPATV
# Method Description: ATG_ERa_TRANS: Factorial reporter gene assay (HepG2)
# Assay type: cell-based
# Condition Description: HepG2; scale not given, looks like -log10 of molar active concentration; 0 = no activity
Measure Name: ATG_ERa_TRANS
Please respond with just the number, no unit label.

Q: Complete the entry with ATG_ERa_TRANS for COc1nc(C)nc(NC(=O)NS(=O)(=O)c2ccccc2Cl)n1 [r63]
Ans: 0

Q: Complete the entry with ATG_ERa_TRANS for O=C(Nc1ccccc1-c1ccc(Cl)cc1)c1cccnc1Cl
Ans: 4.569

Q: Complete the entry with ATG_ERa_TRANS for CCOC(=O)C(Cl)Cc1cc(-n2nc(C)n(C(F)F)c2=O)c(F)cc1Cl (stereo not drawn)
Ans: 0

Q: Complete the entry with ATG_ERa_TRANS for CNC(=O)Oc1cccc2ccccc12
Ans: 4.237

Q: Complete the entry with ATG_ERa_TRANS for CC1=C(C(=O)Nc2ccccc2)SCCO1
Ans: 0

Q: Complete the entry with ATG_ERa_TRANS for CC(C)OC(=O)Nc1cccc(Cl)c1
Ans: 0

Q: Complete the entry with ATG_ERa_TRANS for Nc1cnn(-c2ccccc2)c(=O)c1Cl
Ans: 0

Q: Complete the entry with ATG_ERa_TRANS for Cc1c(COC(=O)C2C(/C=C(\Cl)C(F)(F)F)C2(C)C)cccc1-c1ccccc1 (stereo not drawn)
Ans: 4.432

Q: Complete the entry with ATG_ERa_TRANS for CC(C)N1C(=O)c2ccccc2NS1(=O)=O
Ans: 0

Q: Complete the entry with ATG_ERa_TRANS for CCC(C)Nc1c([N+](=O)[O-])cc(C(C)(C)C)cc1[N+](=O)[O-] (stereo not drawn)
Ans: 4.796

Q: Complete the entry with ATG_ERa_TRANS for N#Cc1c(Cl)c(Cl)c(Cl)c(C#N)c1Cl
Ans: 0

Q: Complete the entry with ATG_ERa_TRANS for CCC(C)n1c(=O)[nH]c(C)c(Br)c1=O (stereo not drawn)
Ans: 0
